Heads up, these compounds all have IC50 values measured for human IRE-1α (GST-IRE-1α) (Homo sapiens (Human), UniProt O75460).

CS(=O)(=O)NC1CCN(c2ccc3c(C=O)c(O)ccc3c2)CC1 [Compound 93] ... > 1000 nM
O=Cc1c(O)ccc2cc(OCC(=O)O)ccc12 [Compound 178] ... > 1000 nM
O=Cc1c(O)ccc2cc(N3CCC(C(=O)N4CCOCC4)C3)ccc12 (stereo not shown) [Compound 111] ... < 1000 nM
CCN(CC)C(=O)c1ccc(-c2ccc3c(C=O)c(O)ccc3c2)cc1 [Compound 2] ... < 1000 nM
Cc1nc(-c2ccc3c(C=O)c(O)ccc3c2)sc1C(=O)N1CCN(C)CC1 [Compound 65] ... < 100 nM
CN1CCN(C(=O)c2cc(-c3ccc4c(C=O)c(O)ccc4c3)ccn2)CC1 [Compound 66] ... < 1000 nM
CN(Cc1ccccc1)C(=O)C1CCN(c2ccc3ccc(O)c(C=O)c3c2)C1 (stereo not shown) [Compound 134] ... > 1000 nM
COCCNC(=O)c1cccc(-c2ccc3c(C=O)c(O)ccc3c2)c1 [Compound 4] ... < 100 nM

From here, focus on the item given below.
Entry O=Cc1c(O)ccc2ccc(N3CCC(C(=O)N4CCOCC4)C3)cc12 (stereo not shown) [Compound 149] ; assay system human IRE-1α (GST-IRE-1α) (Homo sapiens (Human), UniProt O75460); IC50 recorded at > 1000 nM

* * *

pIC50: −log10 of the molar value.
Heads up, these compounds all have pIC50 values measured for human IRE-1α (GST-IRE-1α) (Homo sapiens (Human), UniProt O75460).

Some compounds with known pIC50 results, for comparison:
O=Cc1c(O)ccc2cc(-c3ccc(C(=O)NC4CCNCC4)s3)ccc12 ... > 7.00
CN1CCN(c2ccc3ccc(O)c(C=O)c3c2)CC1 ... < 6.00
O=Cc1c(O)ccc2cc(N3CCC(NCc4ccccc4)C3)ccc12 (centres unmarked) ... < 6.00
CNC(=O)c1ccc(-c2ccc3c(C=O)c(O)ccc3c2)s1 ... > 6.00

The compound listed as CN1CCN(C(=O)C2CCN(c3ccc4c(C=O)c(O)ccc4c3)CC2)CC1 has a reported pIC50 of < 6.00

The compound listed as O=Cc1c(O)ccc2ccc(OS(=O)(=O)C(F)(F)F)cc12 has a reported pIC50 of > 6.00

The compound listed as CN1CCN(C(=O)/C=C/c2ccc3c(C=O)c(O)ccc3c2)CC1 has a reported pIC50 of > 6.00

* * *

Heads up, these compounds all have pIC50 values measured for UniProt:O75460.
pIC50: −log10 of the molar value.

Some compounds with known pIC50 results, for comparison:
CCCNC(=O)c1cccc(-c2ccc3c(C=O)c(O)ccc3c2)n1 ... > 7.00
NCCN1CCN(C(=O)c2ccc(-c3ccc4c(C=O)c(O)ccc4c3)s2)CC1 ... > 6.00
CCOC(=O)/C=C/c1ccc2c(C=O)c(O)ccc2c1 ... > 6.00

Entry Cc1cc(C(=O)N2CCN(C)CC2)sc1-c1ccc2c(C=O)c(O)ccc2c1 ; assay system UniProt:O75460; pIC50 recorded at > 7.00

* * *

pIC50: −log10 of the molar value.
Heads up, these compounds all have pIC50 values measured for human IRE-1α (GST-IRE-1α) (Homo sapiens (Human), UniProt O75460).

Some compounds with known pIC50 results, for comparison:
O=Cc1c(O)ccc2cc(-c3ccc(C(=O)NCCN4CCOCC4)cc3)ccc12 ... > 7.00
NCCOCCOCCNC(=O)c1ccc(-c2ccc3c(C=O)c(O)ccc3c2)s1 ... > 6.00
O=Cc1c(O)ccc2cc(-c3ccc(C(=O)N4CC5CC4CN5)s3)ccc12 (stereo not shown) ... > 7.00

The compound listed as O=Cc1c(O)ccc2cc(-c3ccc(C(=O)NC4CCCNC4)s3)ccc12 (stereo not shown) has a reported pIC50 of > 7.00

The compound listed as O=Cc1c(O)ccc2cc(N3CCC(N4CCOCC4)CC3)ccc12 has a reported pIC50 of > 6.00

The compound listed as O=Cc1c(O)ccc2cc(N3CCOCC3)ccc12 has a reported pIC50 of < 6.00

The compound listed as CC(C)N1CCN(c2ccc3ccc(O)c(C=O)c3c2)CC1 has a reported pIC50 of < 6.00

The compound listed as CN1CCCC(CNC(=O)c2ccc(-c3ccc4c(C=O)c(O)ccc4c3)s2)C1 (stereo not shown) has a reported pIC50 of > 7.00

The compound listed as O=Cc1c(O)ccc2cc(N3CCCC(NCc4ccccc4)C3)ccc12 (stereo not shown) has a reported pIC50 of 6.00

The compound listed as CN1CCN(C(=O)c2ccc(-c3ccc4c(C=O)c(O)ccc4c3)cc2)CC1 has a reported pIC50 of > 7.00

The compound listed as O=Cc1c(O)ccc2cc(N3CCCC3)ccc12 has a reported pIC50 of < 6.00

The compound listed as CN1CCCCC1CNC(=O)c1ccc(-c2ccc3c(C=O)c(O)ccc3c2)s1 (stereo not shown) has a reported pIC50 of > 7.00

The compound listed as CN(C)C(=O)c1ccc(Cl)c(-c2ccc3c(C=O)c(O)ccc3c2)c1 has a reported pIC50 of < 6.00

The compound listed as Cc1cc(C(=O)N2CCOCC2)sc1-c1ccc2c(C=O)c(O)ccc2c1 has a reported pIC50 of > 7.00

The compound listed as O=Cc1c(O)ccc2ccc(N3CCC(C(=O)N4CCCCC4)C3)cc12 (stereo not shown) has a reported pIC50 of < 6.00

The compound listed as CN(C)C(=O)c1ccc(-c2ccc3c(C=O)c(O)ccc3c2)c(Cl)c1 has a reported pIC50 of < 6.00
